system: velvetleaf (Abutilon theophrasti); experiment: Test Example 2: soil surface treatment of field; assay type: in vivo; settings: soil surface spray, dosage 500 g/ha, 19 days after application
test_readout: growth of velvetleaf (herbicidal activity)

| compound | measured_value |
| --- | --- |
| CONC(=O)COc1ncccc1Oc1cc(-n2c(=O)cc(C(F)(F)F)n(C)c2=O)c(F)cc1Cl | completely controlled |
| COC(=O)C(C)Oc1ccc(Oc2cc(-n3c(=O)cc(C(F)(F)F)n(C)c3=O)c(F)cc2Cl)cn1 (stereo not shown) | completely controlled |
| COC(=O)C(C)Oc1ccnc(Oc2cc(-n3c(=O)cc(C(F)(F)F)n(C)c3=O)c(F)cc2Cl)n1 (stereo not shown) | completely controlled |
| COC(=O)COc1cccc(Oc2cc(-n3c(=O)cc(C(F)(F)F)n(C)c3=O)c(F)cc2Cl)n1 | completely controlled |

====

test system: ivyleaf morningglory (Ipomoea hederacea); assay: Test Example 1: foliar treatment of field; assay type: in vivo; conditions: foliar spray, dosage 125 g/ha, 16 days after application
test_readout: growth of ivyleaf morningglory (herbicidal activity)

| smiles_notation | measured_value |
| --- | --- |
| COC(=O)COc1ncccc1Oc1cc(-n2c(=O)cc(C(F)(F)F)n(C)c2=O)c(F)cc1C#N | completely controlled |
| Cn1c(C(F)(F)F)cc(=O)n(-c2cc(Oc3cccnc3OCC(=O)O)c(Cl)cc2F)c1=O | completely controlled |
| COC(=O)COc1cccc(Oc2cc(-n3c(=O)cc(C(F)(F)F)n(C)c3=O)c(F)cc2Cl)n1 | completely controlled |
